# System: A498 renal
# assayText: NCI-60 one-dose screen, 48 h
# testSettings: 10 µM unless noted
The panel holds about 83,000 compounds, 20% with a hit somewhere; the sample as a whole holds those more often. Activity calls are given as the source filed them. The calls were made as follows: active = growth percent below 10; inactive = the rest.
Pick one: t = active, f = inactive

Before answering, review these 8 worked examples.
molecule=O=C(/C=C/c1cccc(O)c1)c1cccc(-n2cc(-c3ccc(Cl)cc3)[nH]c2=O)c1 answerlabel=f
molecule=COc1ccc2c(c1)/C(=C1/S/C(=N/c3nnc(C)s3)NC1=O)C(=O)N2Cc1ccc(Br)cc1 answerlabel=t
molecule=O=S(=O)(Cc1cccc2c(CS(=O)(=O)c3ccc(Cl)cc3)cccc12)c1ccc(Cl)cc1 answerlabel=f
molecule=Cc1ncc(C(=O)Nc2ccc(CN3CCN(C)CC3)c(C(F)(F)F)c2)cc1C#Cc1cnc(NC2CC2)c2ncccc12 answerlabel=t
molecule=Cc1cc2cn3c4ccc(O)cc4[nH]c(=O)c3c2cc1C answerlabel=f
molecule="CCOP1(=O)CC(C)=C(Cl)C(P(=O)(O)O)C1 (stereo unspecified)" answerlabel=f
molecule=Cc1ccc(C(=O)Nc2ccc(CN3CCN(C)CC3)c(C(F)(F)F)c2)cc1C#Cc1cnc(N)c2ccc(C#N)cc12 answerlabel=f
molecule=O=Nc1ccc(O)c2ccccc12 answerlabel=f

Pending molecule:
QUERY: Name the outcome recorded for CN1CCN(Cc2ccc(NC(=O)c3ccc(C#Cc4c(N)ncc5ccc(F)cc45)cc3)cc2C(F)(F)F)CC1 in the assay.
RESULT: f
